Each entry below lists one item and its recorded inhibition value.
- measurement-target: L-lactate dehydrogenase (Plasmodium falciparum (isolate CDC / Honduras)) (UniProt Q27743)
- Sequence (Q27743 whole entry, looked up): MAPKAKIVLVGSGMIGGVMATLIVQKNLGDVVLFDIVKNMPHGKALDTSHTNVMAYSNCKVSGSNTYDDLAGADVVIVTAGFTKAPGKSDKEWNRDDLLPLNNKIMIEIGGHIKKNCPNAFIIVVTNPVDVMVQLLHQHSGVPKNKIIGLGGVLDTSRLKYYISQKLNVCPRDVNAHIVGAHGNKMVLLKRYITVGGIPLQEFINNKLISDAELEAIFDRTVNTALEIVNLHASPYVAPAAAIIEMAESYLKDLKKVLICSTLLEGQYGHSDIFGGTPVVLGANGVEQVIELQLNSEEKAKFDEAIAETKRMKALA
- assay-name: PfLDH activity inhibition – cell lysate, 3D7 strain, counter-screen for P. falciparum growth inhibition project (AID 2304);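 further: 0% = vehicle and 100% = reference inhibitor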
- assay-conditions: P. falciparum 3D7 crude extract, LDH APAD/NBT absorbance; at 2 µM; stronger effect = higher value
endpoint: inhibition (%)

>  <molecule>
O=C(NC(CCCN1CCC2(CC1)OCc1ccccc12)c1ccc(Cl)c(Cl)c1)c1cc(C(F)(F)F)cc(C(F)(F)F)c1 (stereo not given)

>  <reported-result>
5

$$$$
>  <molecule>
COc1ccc(NC(=O)Nc2nc3ccccc3s2)cc1N1CCN(C)CC1

>  <reported-result>
-1

$$$$
>  <molecule>
Clc1nc(Cl)c2c(ccn2Cc2ccccc2)n1

>  <reported-result>
-11

$$$$
>  <molecule>
O=C(NC1CC1)c1ccc(N2CCCC(COc3ccc4c(c3)CCCC4)C2)nc1 (stereo not given)

>  <reported-result>
-5

$$$$
>  <molecule>
Oc1ccc(CCNc2nc(NCCCOc3ccccc3-c3cccnc3)nc(N3CCNCC3)n2)cc1

>  <reported-result>
0

$$$$
>  <molecule>
CCn1ncc(Cl)c1CN(C)S(=O)(=O)c1ccc(Br)cc1

>  <reported-result>
4

$$$$
>  <molecule>
COc1cc(C2=NN(S(=O)(=O)c3c(C)cc(C)cc3C)CCCC2)ccc1Cl

>  <reported-result>
1

$$$$
>  <molecule>
CC(CN1CCN(C)CC1)C(=O)Nc1ccc(-c2ccc(-c3nc4ccccc4[nH]3)s2)cc1 (stereo not given)

>  <reported-result>
4

$$$$
>  <molecule>
CC(=O)Nc1ccc(C(=O)Nc2ccc(-c3cccc(-c4nc5ccc(F)cc5[nH]4)c3)cc2)cn1

>  <reported-result>
-2

$$$$
>  <molecule>
O=C(Cn1c2ccccc2c(=O)c2ccc(Cl)cc21)Nc1ccc(C(F)(F)F)cc1

>  <reported-result>
-3

$$$$
>  <molecule>
Cc1noc(C)c1-c1ccc2c(Nc3ccc(C(F)(F)F)cc3)c(C(N)=O)cnc2c1

>  <reported-result>
6

$$$$
>  <molecule>
Cc1ccc(CN2CCN(c3cc4c(cc3Cl)CCN4C(=O)Cc3ccc(Cl)c(NC(=O)Nc4cccc(C#N)c4)c3)CC2)cc1

>  <reported-result>
1

$$$$
>  <molecule>
O=C(COc1ccccc1)Nn1cnc2ccccc21

>  <reported-result>
3

$$$$
>  <molecule>
c1ccc(CNc2nc(NCCN3CCCCC3)nc3ccccc23)cc1

>  <reported-result>
-11

$$$$
>  <molecule>
C=C[C@H]1CN(CCCCCCC)CC[C@H]1CC(=O)Nc1cnnc2ccc(OC)cc12

>  <reported-result>
3

$$$$
>  <molecule>
CCCC(C)N(Cc1ccc(C(C)(C)C)cc1)C(=O)c1ccc(OC)cc1 (stereo not given)

>  <reported-result>
-2

$$$$
>  <molecule>
O=S(=O)(NCCN1CCCC1)c1ccc(-c2ccc(CN3Cc4ccccc4C3)cc2)s1

>  <reported-result>
5

$$$$
>  <molecule>
Cc1cccc(CN2CCN(c3ncc(C(=O)NC4CC4)cc3Cl)CC2)c1

>  <reported-result>
-4

$$$$
>  <molecule>
Cc1cccc(S(=O)(=O)Nc2cccc(CCN3CCC(N4CCCCC4)CC3)c2)c1

>  <reported-result>
-2

$$$$
>  <molecule>
Cc1ccc2nc(-c3cc(-c4ccc(CO)cc4)cnc3N)[nH]c2c1

>  <reported-result>
9

$$$$

====

- measurement-target: L-lactate dehydrogenase (Plasmodium falciparum (isolate CDC / Honduras)) (UniProt Q27743)
- assay-name: PfLDH activity inhibition – cell lysate, 3D7 strain, counter-screen for P. falciparum growth inhibition project (AID 2304);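 further: 0% = vehicle and 100% = reference inhibitor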
- assay-conditions: P. falciparum 3D7 crude extract, LDH APAD/NBT absorbance; at 2 µM; stronger effect = higher value
Activity calls are given as the source filed them. The rule behind the calls is not given here.

>  <cpd-smiles>
COc1ccc2nccc([C@@H](O)CN3CCC(NC(=O)/C=C/c4ccc(F)c5ccccc45)CC3)c2c1

>  <inhibition>
0% (inactive)

$$$$
>  <cpd-smiles>
CNCCNCc1cccc(-c2ccc(-c3nc4c(C)cccc4[nH]3)s2)c1

>  <inhibition>
-6% (inactive)

$$$$
>  <cpd-smiles>
O=C(NCCOc1ccccc1)[C@H](Cc1ccccc1)Nc1ccnc(NCC2CCCCC2)n1

>  <inhibition>
5% (inactive)

$$$$
>  <cpd-smiles>
NOCCCCOc1cc(Cl)c(Cl)cc1Cl

>  <inhibition>
-2% (inactive)

$$$$
>  <cpd-smiles>
Fc1ccc(Nc2ccnc3cc(-c4ccc(CN5CCOCC5)o4)ccc23)c(Cl)c1

>  <inhibition>
5% (inactive)

$$$$

====

- assay-name: human hepatoma cell viability loss – ATP luminescence, cytotoxicity control for P. falciparum antimalarial project, primary screen (AID 2303);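 further: 0% = DMSO wells and 100% = digitonin-killed cells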
- assay-conditions: HepG2 viability, 24-48 h, at 10 µM, stronger effect = higher value
hey, just use 1 if measured inhibition is less than 30%, otherwise -1

>  <compound>
CNS(=O)(=O)Cc1ccc(Nc2nccc(Nc3cccc4c3cnn4C(=O)Nc3ccccc3)n2)cc1

>  <class>
-1

$$$$
>  <compound>
CC1(C)CCC(C)(C)c2c1ccc(C1CCN(CCCCNC(=O)c3ccc(-c4ccc(C#N)cc4)cc3)CC1)c2OCC(N)=O

>  <class>
-1

$$$$
>  <compound>
O=C(NCCCCCN1CCC(c2ccc(O)cc2)CC1)c1ccc(-c2ccccc2)cc1

>  <class>
1

$$$$
>  <compound>
Cc1cc(Nc2ccc(C(C)(C)C)cc2)c2[nH]ncc2n1

>  <class>
-1

$$$$
>  <compound>
CC(C)CCNC(=O)c1cnc2c(O)cccc2c1Nc1cccc(NC(=O)c2ccc(F)cc2)c1

>  <class>
-1

$$$$
>  <compound>
Cc1cccc2[nH]c(-c3ccc(-c4cccc(NC(=O)c5cncn5C)c4)s3)nc12

>  <class>
1

$$$$
>  <compound>
O=C(NCCCCN1CCN(c2cccc3c2OCCO3)CC1)c1ccc(NC(=O)c2cc(Cl)cc(Cl)c2)cc1

>  <class>
1

$$$$
>  <compound>
CN1CCN(c2cc3c(cc2Br)CCN3C(=O)Nc2ccc(-c3cnc4ccccc4c3)cc2)CC1

>  <class>
-1

$$$$
>  <compound>
Cc1cc(C)cc(-n2c(C)cc(C=C3SC(=Nc4ccc(Cl)cc4)NC3=O)c2C)c1

>  <class>
1

$$$$
>  <compound>
CC[C@H](N=C(Nc1ccc(C#N)cc1O)Nc1cccc(Cl)c1Cl)c1ccccc1

>  <class>
1

$$$$
>  <compound>
CCOC(=O)c1[nH]c2ccc(F)cc2c1NC(=O)CN1CCN(c2cccc(C(F)(F)F)c2)CC1

>  <class>
1

$$$$
>  <compound>
COc1ccc(Cl)cc1NC(=O)C(C)Nc1ccc(-c2ccccc2)cc1 (centres undefined)

>  <class>
1

$$$$
>  <compound>
CCCCOc1cc2[nH]cc(C(=O)OCC)c(=O)c2cc1OCCCC

>  <class>
1

$$$$
>  <compound>
OC(c1ccc(Cl)cc1)(c1ccc(Cl)cc1)C(c1ccc(Cl)cc1)n1ccnc1 (centres undefined)

>  <class>
1

$$$$
>  <compound>
COc1cc(Cc2cnc(N)nc2N)cc(OCCCOc2ccccc2)c1OC

>  <class>
1

$$$$
>  <compound>
CCC(=Cc1cccc([N+](=O)[O-])c1)C(=O)NCC1CCN(c2nc(N)c3cc(OC)c(OC)cc3n2)CC1

>  <class>
1

$$$$
>  <compound>
Nc1cc(-c2ccc(-c3cccs3)s2)nc2ccccc12

>  <class>
-1

$$$$
>  <compound>
COc1ccc(C2CC(=O)C3=C(C2)NC(C)=C(C(=O)OC(C)C)C3c2ccccc2F)cc1OC (centres undefined)

>  <class>
1

$$$$
>  <compound>
C=Cc1ccccc1C1(O)CCN(CCCCNC(=O)c2ccc(-c3ccc(C#N)cc3)cc2)CC1

>  <class>
1

$$$$

====

- measurement-target: L-lactate dehydrogenase (Plasmodium falciparum (isolate CDC / Honduras)) (UniProt Q27743)
- assay-name: PfLDH activity inhibition – cell lysate, 3D7 strain, counter-screen for P. falciparum growth inhibition project (AID 2304);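 further: 0% = vehicle and 100% = reference inhibitor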
- assay-conditions: P. falciparum 3D7 crude extract, LDH APAD/NBT absorbance; at 2 µM; stronger effect = higher value

>  <compound>
COc1ccc(-c2cncc3ccc(C(=O)NCCCn4ccnc4)nc23)cc1

>  <inhibition (%)>
-3

$$$$
>  <compound>
O=[N+]([O-])c1cccc(CNC2CCN(Cc3ccc(Cl)c(Cl)c3)CC2)c1

>  <inhibition (%)>
3

$$$$
>  <compound>
O=C(/C=C/c1ccc(Cl)c(Cl)c1)NCCCCCCN1CCCN(C(=O)Nc2cc(Cl)cc(Cl)c2)CC1

>  <inhibition (%)>
-3

$$$$
>  <compound>
O=C(/C=C/c1ccc(C(F)(F)F)cc1)NCCCCCN1CCN(C(=O)Nc2ccc(Cl)cc2)CC1

>  <inhibition (%)>
-8

$$$$
>  <compound>
CCc1cn2c3c(cc(C(=O)N[C@@H](Cc4ccccc4)[C@H](O)CNC(C)(C)c4cccc(OC)c4)cc13)N(C)S(=O)(=O)C2

>  <inhibition (%)>
-5

$$$$
>  <compound>
COc1ccccc1CC1CCCN(C2CCC(NC(=O)c3cc4ccccc4[nH]3)CC2)C1 (centres undefined)

>  <inhibition (%)>
-2

$$$$
>  <compound>
O=S(=O)(c1ccccc1)n1ccc2cc(Nc3ncnc4cc(C#C[C@H]5CCCN5)sc34)ccc21

>  <inhibition (%)>
-3

$$$$
>  <compound>
O=C(c1cc(-c2ccco2)[nH]n1)N1CCN(S(=O)(=O)c2ccc(Cl)cc2)CC1

>  <inhibition (%)>
2

$$$$
>  <compound>
CCCn1c(=N)c(C(=O)NCCc2ccccc2)cc2c(=O)n3cccc(C)c3nc21

>  <inhibition (%)>
2

$$$$
>  <compound>
CN(C)CCNC(=O)NC1CN(c2ncnc3cc(-c4ccccc4)sc23)C1

>  <inhibition (%)>
5

$$$$
>  <compound>
Cc1cc(Nc2ccc(O)cc2)nc2cccc(O)c12

>  <inhibition (%)>
-6

$$$$
>  <compound>
O=C(c1ccc2ccccc2n1)N1CCCc2cc(Br)ccc21

>  <inhibition (%)>
-3

$$$$
>  <compound>
CCn1c(CN2CCC(C)CC2)nc2cc(NC(=O)c3cccs3)ccc21

>  <inhibition (%)>
1

$$$$
>  <compound>
CN1CCC(c2c[nH]c3ccc(NC(=O)Nc4ccc(-c5ccncc5)cc4Cl)cc23)CC1

>  <inhibition (%)>
7

$$$$
>  <compound>
COc1ccc(Nc2ncc3c(-c4cccc(NC(=O)Cc5cccnc5)c4)c[nH]c3n2)cc1OC

>  <inhibition (%)>
1

$$$$
>  <compound>
COc1ccc(CCN(C)CCc2ccc(NC(=O)c3cccc4c(=O)c5ccccc5sc34)cc2)cc1

>  <inhibition (%)>
-2

$$$$
>  <compound>
CN(C)C1CCN(Cc2ccc(N3CCN(Cc4cccc5[nH]ccc45)CC3)nc2)CC1

>  <inhibition (%)>
-2

$$$$
>  <compound>
O=C(NCCCCCN1CCC(c2c[nH]c3ccccc23)C1)Nc1ccc(Cl)c(Cl)c1 (centres undefined)

>  <inhibition (%)>
1

$$$$
>  <compound>
CC(C)(C)c1ccc(CN2CCC(NC(=O)c3ccc(-c4cccc(Cl)c4)s3)CC2)cc1

>  <inhibition (%)>
5

$$$$
